# System: U2OS
# Test Name: Multiplex assay against U2OS
# Assay type: toxicity, cell-based
# Stated Conditions: human, 24 h, 10 µM, compound concentration 10 uM, replicate 1
Below: a set of entries, each annotated with reported Population Mitochondria Different-Phenotype (%).
Reported Endpoint: Population Mitochondria Different-Phenotype (%)

Query Smiles	Numeric Value
CSCC[C@H](NC=O)C(=O)N[C@@H](CC(C)C)C(=O)N[C@@H](Cc1ccccc1)C(=O)O	1
CC[C@H]1OC(=O)[C@H](C)[C@@H](O[C@H]2C[C@@](C)(OC)[C@@H](O)[C@H](C)O2)[C@H](C)[C@@H](O[C@@H]2O[C@H](C)C[C@H](N(C)C)[C@H]2O)[C@@]2(C)CC(C)=C(O2)[C@H](C)[C@@H](O)[C@]1(C)O	65
C[C@H](NC(=O)c1c(C(F)F)nn(C)c1Oc1cccc(C(F)(F)F)c1)c1ccc(C(=O)O)cc1	3

###

# Test system: Fibroblast
# Test Name: Multiplex assay against human fibroblast
# Assay type: toxicity, cell-based
# Stated Conditions: 24 h, 1 µM, compound concentration 1 uM, replicate 2

Compound	Total Cell Count
Cc1nc2ccc(Oc3ccc(F)cc3)cc2c(=O)n1C[C@H]1CCCN(C(C)C)C1.Cl	112
Cl.Clc1ccc2nsnc2c1NC1=NCCN1 [TIZANIDINE HYDROCHLORIDE]	182
COc1cc(C(=O)N(CCCc2ccccc2)Cc2ccc(CC(=O)O)cc2)cc(OC)c1C	189
O=C1COc2nccc(-c3ccccc3F)c2CN1Cc1cc(C(F)(F)F)cc(C(F)(F)F)c1	142
O=C(NCCO)c1cccc(-c2cc(Nc3ccc(OC(F)(F)F)cc3)ncn2)c1	139

###

# Tested on: HEK-293T
# Test Name: Multiplex assay against HEK293T
# Type: toxicity, cell-based
# Stated Conditions: human, 48 h, 10 µM, compound concentration 10 uM, replicate 2
Rule: Population Mitotic Cells (%) below 50% gives Yes. Equal to or above 50% gives No.

Molecule	Assigned Category
Cc1nc2ccc(Oc3ccc(F)cc3)cc2c(=O)n1C[C@H]1CCCN(C(C)C)C1.Cl	Yes
CCOc1c2c(c(OCC)c3ncccc13)CN(c1ccc(CS(=O)(=O)NC(=O)Cc3ccccc3OC)cc1C)C2=O	No
O=C1COc2nccc(-c3ccccc3F)c2CN1Cc1cc(C(F)(F)F)cc(C(F)(F)F)c1	Yes
CCNC1(C(N)=O)CCN(c2ncnc3c2nc(-c2ccccc2Cl)n3-c2ccc(Cl)cc2)CC1 [OTENABANT]	Yes
O=C(NCCO)c1cccc(-c2cc(Nc3ccc(OC(F)(F)F)cc3)ncn2)c1	Yes
Cc1ccc(F)cc1C(=O)Nc1ccc(C(=O)N2Cc3cccn3Cc3ccccc32)c(Cl)c1 [LIXIVAPTAN]	No
CN(C)c1ccnc2sc3c(=O)n(N4CCCCCC4)cnc3c12	Yes
CCCN1CCC[C@@H]2Cc3n[nH]cc3C[C@H]21.Cl [QUINPIROLE HYDROCHLORIDE]	No
CCCn1c(=O)c2[nH]c(C3CCCC3)nc2n(CCC)c1=O	No
C[C@H]1[C@H]2CC[C@H]3[C@@H]4CC=C5C[C@@H](N(C)C)CC[C@]5(C)[C@H]4CC[C@]23CN1C [CONESSINE]	No
O=C(O)c1cc2ccccc2c(Cc2c(O)c(C(=O)O)cc3ccccc23)c1O [PAMOIC ACID]	No
CN(C)CCCc1cc(C(=O)Nc2ccc(-c3ccncc3)cc2)ccc1O.Cl.Cl	Yes
COc1ccccc1N1CCN(CCCCNC(=O)c2ccc3ccccc3c2)CC1.Cl	Yes
CSc1ccccc1N1CCN(CCCCCC(=O)NC2CCCc3ccccc32)CC1.Cl (stereo not drawn)	Yes
Cc1ccc(-c2ccc(F)cc2COc2ccc(CCC(=O)O)cc2)cc1	No
CN1CCN(c2nc3cc(C(F)(F)F)ccc3n3cccc23)CC1.O=C(O)/C=C\C(=O)O.O=C(O)/C=C\C(=O)O	Yes
CC(=O)NCCc1c(Cc2ccccc2)[nH]c2ccccc12 [LUZINDOLE]	No
